Where these numbers come from: patent US20060111408A1

Reported FP Selectivity values are given for each entry in this list.
target: human recombinant ERβ (Homo sapiens, UniProt Q92731); construct: purchased PanVera (Madison, Wis.); assay: Fluorescence polarization estrogen receptor (ERFP) binding assay, ERβ; conditions: β-ER over α-ER, from FP Ki values
Sequence (Q92731 whole entry): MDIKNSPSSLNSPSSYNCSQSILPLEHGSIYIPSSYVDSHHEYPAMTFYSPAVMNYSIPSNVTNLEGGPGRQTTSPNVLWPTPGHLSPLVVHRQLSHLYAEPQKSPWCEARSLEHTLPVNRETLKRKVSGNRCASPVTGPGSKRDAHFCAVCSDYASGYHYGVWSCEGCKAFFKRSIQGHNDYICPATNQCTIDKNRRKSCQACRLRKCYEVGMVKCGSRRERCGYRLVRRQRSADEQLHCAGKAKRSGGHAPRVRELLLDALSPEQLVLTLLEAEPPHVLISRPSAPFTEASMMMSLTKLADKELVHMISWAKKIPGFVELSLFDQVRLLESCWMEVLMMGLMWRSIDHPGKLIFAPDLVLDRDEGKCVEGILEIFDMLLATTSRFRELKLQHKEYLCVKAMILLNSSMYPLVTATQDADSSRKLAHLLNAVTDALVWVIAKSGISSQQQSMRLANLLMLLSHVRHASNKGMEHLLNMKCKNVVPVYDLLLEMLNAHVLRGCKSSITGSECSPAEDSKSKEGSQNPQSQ
The answer should be written as a number, with no unit following it.

Take a look at these entries with their results.
[
  {
    "molecule": "Oc1ccc(-c2nc3c(Cl)cc(O)cc3o2)cc1",
    "FP Selectivity": 10
  },
  {
    "molecule": "COc1ccc2oc(-c3ccc(O)cc3)nc2c1 [Example 8, 2-(4-hydroxyphenyl)-5-methoxybenzoxazole]",
    "FP Selectivity": 3
  },
  {
    "molecule": "Cc1cc(O)cc2oc(-c3ccc(O)cc3)nc12",
    "FP Selectivity": 25
  },
  {
    "molecule": "Oc1cc(Br)c2oc(-c3ccc(O)c(Cl)c3)nc2c1",
    "FP Selectivity": 30
  }
]

# evaluate next
Endpoint output: FP Selectivity of "Oc1ccc(-c2nc3c(O)cc(O)cc3o2)cc1" . Value?
3

----------
Reported EC50 values are given for each entry in this list.
Target: αER (Homo sapiens)
Construct: the transfection step says 293T
Sequence (P03372 1-595): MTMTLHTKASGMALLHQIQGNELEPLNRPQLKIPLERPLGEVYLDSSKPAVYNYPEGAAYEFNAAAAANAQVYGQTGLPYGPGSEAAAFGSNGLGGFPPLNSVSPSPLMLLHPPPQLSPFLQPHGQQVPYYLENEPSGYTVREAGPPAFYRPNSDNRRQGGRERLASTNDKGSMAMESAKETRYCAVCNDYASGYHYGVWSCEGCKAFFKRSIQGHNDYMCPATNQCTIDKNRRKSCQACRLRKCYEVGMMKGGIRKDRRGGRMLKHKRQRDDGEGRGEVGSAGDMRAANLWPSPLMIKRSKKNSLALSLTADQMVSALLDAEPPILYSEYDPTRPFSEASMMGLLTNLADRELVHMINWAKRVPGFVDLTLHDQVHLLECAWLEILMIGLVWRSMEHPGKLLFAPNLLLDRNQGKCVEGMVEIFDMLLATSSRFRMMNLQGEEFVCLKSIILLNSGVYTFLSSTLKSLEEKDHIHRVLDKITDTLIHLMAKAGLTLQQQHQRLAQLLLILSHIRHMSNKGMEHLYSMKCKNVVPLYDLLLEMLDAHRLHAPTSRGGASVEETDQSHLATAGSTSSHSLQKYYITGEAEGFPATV
Assay: Cell-based assay for ER transcriptional activity (ERE β-gal reporter), αER-transfected 293 cells
Settings: 293 cells transfected with αER and ERE β-gal reporter; read-out: ERE α-ER EC50
Don't forget the unit after the number, please.

Endpoint output: EC50 of "Oc1ccc(-c2nc3c(Cl)cc(O)cc3o2)cc1" . Value?
61 nM

Endpoint output: EC50 of "Oc1cc(Br)c2oc(-c3ccc(O)c(Cl)c3)nc2c1" . Value?
76 nM

Endpoint output: EC50 of "Cc1cc(O)cc2oc(-c3ccc(O)cc3)nc12" . Value?
497 nM

----------
target: βER (Homo sapiens); construct: expressed in transfected cells; host or cells: 293 cells (Human Embryonic Kidney, ATCC CRL-1573); the transfection step says 293T; assay: Cell-based assay for ER transcriptional activity (ERE β-gal reporter), βER-transfected 293 cells; conditions: HEK293; 293 cells transfected with βER; max controls 10 nM beta-estradiol
measure name: Emax (%)
Use % as the unit, but write only the number.

Take a look at these entries with their results.
[
  {
    "item smiles": "Oc1cc(Br)c2oc(-c3ccc(O)c(Cl)c3)nc2c1",
    "units": "%",
    "result number": 81
  },
  {
    "item smiles": "Oc1ccc(-c2nc3c(Cl)cc(O)cc3o2)cc1",
    "units": "%",
    "result number": 98
  },
  {
    "item smiles": "Cc1cc(O)cc2oc(-c3ccc(O)cc3)nc12",
    "units": "%",
    "result number": 89
  }
]

# evaluate next
Endpoint output: Emax of "Oc1ccc(-c2nc3c(O)cc(O)cc3o2)cc1" . Value?
98

----------
Target: βER (Homo sapiens)
Construct: expressed in transfected cells; host or cells: 293 cells (Human Embryonic Kidney, ATCC CRL-1573); the transfection step says 293T
Test: Cell-based assay for ER transcriptional activity (ERE β-gal reporter), βER-transfected 293 cells
Conditions: β-ER over α-ER, from ERE EC50 values
Experimental: Cell-based Assay for ER Transcriptional Activity: ERs are ligand-dependent transcription factors that bind the promoter regions of genes at a consensus DNA sequence called the estrogen responsive element (ERE). The ER agonist or antagonist activity of a drug was determined by measuring the amount of reporter enzyme activity expressed from a plasmid under the control of an estrogen-responsive element when cells transiently transfected with ER and the reporter plasmid were exposed to drug. […]
Reported ERE Selectivity values are given for each entry in this list.
The answer should be written as a number, with no unit following it.

Take a look at these entries with their results.
[
  {
    "item smiles": "Oc1cc(Br)c2oc(-c3ccc(O)c(Cl)c3)nc2c1",
    "ERE Selectivity": 153
  },
  {
    "item smiles": "Oc1ccc(-c2nc3c(O)cc(O)cc3o2)cc1",
    "ERE Selectivity": 1.8
  },
  {
    "item smiles": "Cc1cc(O)cc2oc(-c3ccc(O)cc3)nc12",
    "ERE Selectivity": 22
  }
]

# evaluate next
Return ERE Selectivity measured with βER (Homo sapiens) given this compound: "Oc1ccc(-c2nc3c(Cl)cc(O)cc3o2)cc1"
52

----------
biological target: human recombinant ERα (Homo sapiens, UniProt P03372); construct: purchased PanVera (Madison, Wis.); test: Fluorescence polarization estrogen receptor (ERFP) binding assay, ERα; details: fluorescence polarization competition with Fluormone ES2; IC50 converted to Ki by Kenakin formula; read-out: FP α-ER Ki
measure name: log10(Ki) (log10 of the value in nM)
The figures below represent log10 of Ki, where Ki is stated in nM.

Take a look at these entries with their results.
[
  {
    "compound": "COc1ccc2oc(-c3ccc(O)cc3)nc2c1 [Example 8, 2-(4-hydroxyphenyl)-5-methoxybenzoxazole]",
    "log10(Ki)": 2.68
  },
  {
    "compound": "Oc1ccc(-c2nc3c(Cl)cc(O)cc3o2)cc1",
    "log10(Ki)": 1.26
  },
  {
    "compound": "Oc1ccc(-c2nc3c(O)cc(O)cc3o2)cc1",
    "log10(Ki)": 3.00
  },
  {
    "compound": "Oc1cc(Br)c2oc(-c3ccc(O)c(Cl)c3)nc2c1",
    "log10(Ki)": 1.73
  }
]

# evaluate next
Endpoint output: log10(Ki) of "Cc1cc(O)cc2oc(-c3ccc(O)cc3)nc12" . Value?
2.08

----------
molecular target: human recombinant ERβ (Homo sapiens, UniProt Q92731); assay: Fluorescence polarization estrogen receptor (ERFP) binding assay, ERβ; conditions: fluorescence polarization competition with Fluormone ES2; IC50 converted to Ki by Kenakin formula; read-out: FP β-ER Ki
Response field label: string, one of 1 (yes) (Ki strictly below 2 nM) or 0 (no).

Previously resolved entries follow.
[
  {
    "molecule": "Oc1ccc(-c2nc3c(Cl)cc(O)cc3o2)cc1",
    "subject of test": "human recombinant ERβ (Homo sapiens, UniProt Q92731)",
    "classification": "1 (yes)"
  },
  {
    "molecule": "Oc1ccc(-c2nc3c(O)cc(O)cc3o2)cc1",
    "subject of test": "human recombinant ERβ (Homo sapiens, UniProt Q92731)",
    "classification": "0 (no)"
  },
  {
    "molecule": "COc1ccc2oc(-c3ccc(O)cc3)nc2c1 [Example 8, 2-(4-hydroxyphenyl)-5-methoxybenzoxazole]",
    "subject of test": "human recombinant ERβ (Homo sapiens, UniProt Q92731)",
    "classification": "0 (no)"
  },
  {
    "molecule": "Oc1cc(Br)c2oc(-c3ccc(O)c(Cl)c3)nc2c1",
    "subject of test": "human recombinant ERβ (Homo sapiens, UniProt Q92731)",
    "classification": "1 (yes)"
  }
]

Consider now this further molecule.
Does "Cc1cc(O)cc2oc(-c3ccc(O)cc3)nc12" have Ki strictly under 2 nM?
0 (no)

----------
biological target: βER (Homo sapiens, UniProt Q92731); construct: expressed in transfected cells; host or cells: 293 cells (Human Embryonic Kidney, ATCC CRL-1573); the transfection step says 293T; test: Cell-based assay for ER transcriptional activity (ERE β-gal reporter), βER-transfected 293 cells; details: 293 cells transfected with βER and ERE β-gal reporter
Sequence (Q92731 54-530 limits assumed): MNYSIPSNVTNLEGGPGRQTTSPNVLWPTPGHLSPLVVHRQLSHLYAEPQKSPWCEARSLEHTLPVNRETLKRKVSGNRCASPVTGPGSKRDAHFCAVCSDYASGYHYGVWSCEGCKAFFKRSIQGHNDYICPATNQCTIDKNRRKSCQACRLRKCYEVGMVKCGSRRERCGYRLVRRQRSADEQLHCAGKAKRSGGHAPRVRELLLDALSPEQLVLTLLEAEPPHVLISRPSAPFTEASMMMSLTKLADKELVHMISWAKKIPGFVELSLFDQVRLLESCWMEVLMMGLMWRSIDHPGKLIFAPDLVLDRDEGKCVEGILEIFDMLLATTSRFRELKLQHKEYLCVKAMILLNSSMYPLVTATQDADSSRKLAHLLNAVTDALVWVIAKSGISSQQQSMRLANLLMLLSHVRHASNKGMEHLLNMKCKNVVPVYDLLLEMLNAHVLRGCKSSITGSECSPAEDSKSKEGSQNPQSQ
Reported EC50 values are given for each entry in this list.
Use nM as the unit, but write only the number.

Take a look at these entries with their results.
[
  {
    "molecule": "Oc1cc(Br)c2oc(-c3ccc(O)c(Cl)c3)nc2c1 [Example 12]",
    "subject of test": "βER (Homo sapiens, UniProt Q92731)",
    "EC50 [nM]": 0.5
  },
  {
    "molecule": "Oc1ccc(-c2nc3c(Cl)cc(O)cc3o2)cc1 [Example 1]",
    "subject of test": "βER (Homo sapiens, UniProt Q92731)",
    "EC50 [nM]": 1.2
  }
]

# evaluate next
Return EC50 measured with βER (Homo sapiens, UniProt Q92731) given this molecule: Cc1cc(O)cc2oc(-c3ccc(O)cc3)nc12 [Example 3]
23
